# test target: Voltage-dependent T-type calcium channel subunit alpha-1G (Homo sapiens)
# Sequence (O43497 whole entry): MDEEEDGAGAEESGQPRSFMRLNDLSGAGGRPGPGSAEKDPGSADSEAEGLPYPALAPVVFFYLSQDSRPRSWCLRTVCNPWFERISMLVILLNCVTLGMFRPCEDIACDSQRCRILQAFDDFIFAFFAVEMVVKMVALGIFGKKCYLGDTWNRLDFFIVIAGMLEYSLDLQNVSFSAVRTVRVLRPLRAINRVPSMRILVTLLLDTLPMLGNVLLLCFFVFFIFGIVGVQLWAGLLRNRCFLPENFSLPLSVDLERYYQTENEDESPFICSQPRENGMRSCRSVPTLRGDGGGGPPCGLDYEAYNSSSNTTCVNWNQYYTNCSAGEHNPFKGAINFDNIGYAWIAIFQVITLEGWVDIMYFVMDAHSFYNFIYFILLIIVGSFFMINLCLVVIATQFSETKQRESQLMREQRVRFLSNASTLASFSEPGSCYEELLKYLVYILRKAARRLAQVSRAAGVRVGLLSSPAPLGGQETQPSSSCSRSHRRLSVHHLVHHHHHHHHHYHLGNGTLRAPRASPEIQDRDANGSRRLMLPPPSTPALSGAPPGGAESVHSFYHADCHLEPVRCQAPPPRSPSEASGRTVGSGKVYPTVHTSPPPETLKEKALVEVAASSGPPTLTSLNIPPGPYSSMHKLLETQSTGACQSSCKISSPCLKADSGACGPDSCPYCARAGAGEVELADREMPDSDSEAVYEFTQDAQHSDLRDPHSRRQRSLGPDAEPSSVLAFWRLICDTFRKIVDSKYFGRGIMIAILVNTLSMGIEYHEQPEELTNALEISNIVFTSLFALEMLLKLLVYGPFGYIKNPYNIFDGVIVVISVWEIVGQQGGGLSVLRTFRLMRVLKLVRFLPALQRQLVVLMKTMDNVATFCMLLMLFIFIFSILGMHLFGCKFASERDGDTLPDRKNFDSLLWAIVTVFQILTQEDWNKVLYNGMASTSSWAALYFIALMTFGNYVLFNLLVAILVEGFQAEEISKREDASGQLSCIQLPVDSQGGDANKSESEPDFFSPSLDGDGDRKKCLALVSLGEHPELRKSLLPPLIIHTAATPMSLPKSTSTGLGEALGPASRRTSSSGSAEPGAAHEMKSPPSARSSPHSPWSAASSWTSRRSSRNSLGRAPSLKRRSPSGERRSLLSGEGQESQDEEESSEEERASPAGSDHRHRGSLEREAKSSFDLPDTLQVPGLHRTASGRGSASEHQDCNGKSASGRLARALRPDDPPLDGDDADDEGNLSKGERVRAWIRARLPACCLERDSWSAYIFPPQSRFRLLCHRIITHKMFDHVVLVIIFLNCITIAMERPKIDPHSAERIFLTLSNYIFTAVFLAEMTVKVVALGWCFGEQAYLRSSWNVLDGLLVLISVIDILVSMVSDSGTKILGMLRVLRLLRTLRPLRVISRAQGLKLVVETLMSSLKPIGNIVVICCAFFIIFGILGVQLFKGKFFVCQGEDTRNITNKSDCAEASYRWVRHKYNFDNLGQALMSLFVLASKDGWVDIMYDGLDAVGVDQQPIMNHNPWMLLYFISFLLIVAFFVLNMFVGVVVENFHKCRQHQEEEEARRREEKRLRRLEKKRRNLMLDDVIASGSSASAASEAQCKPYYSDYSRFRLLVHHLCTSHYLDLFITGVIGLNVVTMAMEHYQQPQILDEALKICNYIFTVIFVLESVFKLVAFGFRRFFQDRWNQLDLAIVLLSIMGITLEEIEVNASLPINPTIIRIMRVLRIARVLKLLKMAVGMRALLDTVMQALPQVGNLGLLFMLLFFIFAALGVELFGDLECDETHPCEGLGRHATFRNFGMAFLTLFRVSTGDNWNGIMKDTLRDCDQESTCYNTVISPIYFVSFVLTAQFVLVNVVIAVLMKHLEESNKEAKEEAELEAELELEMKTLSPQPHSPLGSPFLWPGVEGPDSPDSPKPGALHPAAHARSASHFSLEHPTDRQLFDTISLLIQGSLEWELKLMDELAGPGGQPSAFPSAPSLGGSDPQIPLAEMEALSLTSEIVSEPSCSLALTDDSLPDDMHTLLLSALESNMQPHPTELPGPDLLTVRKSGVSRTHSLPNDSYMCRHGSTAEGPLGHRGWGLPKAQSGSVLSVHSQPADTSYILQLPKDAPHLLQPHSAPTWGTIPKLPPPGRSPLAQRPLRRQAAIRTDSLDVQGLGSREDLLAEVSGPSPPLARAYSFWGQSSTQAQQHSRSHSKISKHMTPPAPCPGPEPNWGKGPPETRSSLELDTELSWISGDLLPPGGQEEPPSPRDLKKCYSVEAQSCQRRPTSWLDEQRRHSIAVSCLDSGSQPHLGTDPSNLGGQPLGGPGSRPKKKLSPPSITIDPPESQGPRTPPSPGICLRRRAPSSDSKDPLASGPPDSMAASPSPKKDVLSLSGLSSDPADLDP
# procedure text: Inhibition of T-type alpha1G channel (unknown origin) by whole cell patch clamp method
assay metric: IC50 (nM)
Expressed in nM, but write only the number.

Please fill in: IC50 reported for CC(C)Cc1cc(CNC(=O)C2C3CN(C(=O)Cc4ccccc4)CC32)nn1-c1ccccc1 (stereo unspecified) = 2730

----------
# test target: CYP2C9 (Homo sapiens)
# Sequence (P11712 whole entry): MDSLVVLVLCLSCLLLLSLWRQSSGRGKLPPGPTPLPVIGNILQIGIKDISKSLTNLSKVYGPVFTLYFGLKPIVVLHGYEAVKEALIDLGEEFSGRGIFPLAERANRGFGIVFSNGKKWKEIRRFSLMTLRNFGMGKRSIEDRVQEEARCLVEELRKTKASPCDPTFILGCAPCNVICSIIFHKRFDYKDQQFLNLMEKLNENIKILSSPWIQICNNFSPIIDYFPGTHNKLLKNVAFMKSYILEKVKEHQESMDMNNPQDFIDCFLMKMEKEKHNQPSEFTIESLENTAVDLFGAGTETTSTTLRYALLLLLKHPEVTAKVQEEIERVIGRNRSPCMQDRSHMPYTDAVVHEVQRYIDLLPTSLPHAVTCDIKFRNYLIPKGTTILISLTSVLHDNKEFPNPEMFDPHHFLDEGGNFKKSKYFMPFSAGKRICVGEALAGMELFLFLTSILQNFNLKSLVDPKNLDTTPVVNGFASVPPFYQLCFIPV
# procedure text: Inhibition of human CYP2C9 expressed in baculosomes assessed as remaining activity using fluorogenic substrate after 15 mins in presence of NADPH by fluorescence assay
# Format: ADME
# Design: concentration or dose not given beside the values
# test conditions: recombinant human CYP2C9 in baculosomes, probe fluorogenic substrate, read-out: Activity
assay metric: activity at 0.25 h (%)
Response body: numeric value in %, unit text excluded.

| molecule | unit label | activity at 0.25 h |
| --- | --- | --- |
| CN(CCCc1nc2ccccc2[nH]1)C(=O)C1C2CN(CCc3ccc(C(F)(F)F)cc3)CC21 (stereo unspecified) | % | 51.4 |
| CC(C)Cc1cc(CNC(=O)C2C3CN(CCC(C)(C)C)CC32)nn1-c1ccccc1 (stereo unspecified) | % | 72.8 |
| CC(C)Cc1cc(C(=O)NCC2C3CN(CCC(C)(C)C)CC23)nn1-c1ccccc1 (stereo unspecified) | % | 87.1 |

Given the molecule CC(C)Cc1cc(CNC(=O)C2C3CN(C(=O)c4ccccc4)CC32)nn1-c1ccccc1 (stereo unspecified) and test system CYP2C9 (Homo sapiens), the measured activity at 0.25 h is 64.6

Field activity at 0.25 h (system: CYP2C9 (Homo sapiens)) for entry CC(C)Cc1cc(CNC(=O)C2C3CN(C(=O)Cc4ccccc4)CC32)nn1-c1ccccc1 (stereo unspecified) = 24.8

Lab note: molecule CC(C)Cc1cc(CNC(=O)C2C3CN(Cc4ccccc4)CC32)nn1-c1ccccc1 (stereo unspecified) tested on CYP2C9 (Homo sapiens); recorded activity at 0.25 h was 118

----------
# procedure text: Clearance in rat at 10 mg/kg, iv
# Type: ADME, organism-based
# test conditions: in vivo
assay metric: clearance (mL/min/kg)
Give just the number in mL/min/kg; leave the unit off.

# clearance of CC(C)Cc1cc(CNC(=O)C2C3CN(C(=O)c4ccccc4)CC32)nn1-c1ccccc1 (stereo unspecified) = 43.8

----------
# procedure text: Ratio of drug level in rat brain to plasma at 10 mg/kg, po at 2 hrs
# Format: ADME, organism-based
# test conditions: brain and plasma, read-out: BPR
assay metric: Kp at 2 h
Lab note: jot the number down without any unit.

The molecule identified as CC(C)Cc1cc(CNC(=O)C2C3CN(C(=O)c4ccccc4)CC32)nn1-c1ccccc1 (stereo unspecified) registered its Kp at 2 h at 0.12

----------
# procedure text: AUClast in rat at 10 mg/kg, po
# Type: ADME, organism-based
# Design: dose 10 mg/kg, route oral, time 0 - last
# test conditions: in vivo
assay metric: AUC(0-t)

Summary for this compound, CC(C)Cc1cc(CNC(=O)C2C3CN(C(=O)c4ccccc4)CC32)nn1-c1ccccc1 (stereo unspecified) : AUC(0-t) is 273 ng·h/mL

----------
# procedure text: AUC (0 to infinity) in rat at 10 mg/kg, po
# Type: ADME, organism-based
# Design: dose 10 mg/kg, route oral, time infinity
# test conditions: in vivo
assay metric: AUC(0-inf) (ng·h/mL)
Number only, in ng·h/mL; omit the unit.

Per the record, CC(C)Cc1cc(CNC(=O)C2C3CN(C(=O)c4ccccc4)CC32)nn1-c1ccccc1 (stereo unspecified) has AUC(0-inf) of 294

FYI, the data here is from ChEMBL document CHEMBL4428088.
